Documented E. coli MIC across a set of compounds
test system: E. Coli NCTC 12241; format: cell-based
Non-standard residues stand in square brackets, D forms with d. Residues, ends and D or L forms follow the SMILES beside them. ξ: configuration not given here. *: point of attachment. Hexanoyl(4ξ-Me) = CCC(C)CCC(=O)*; dOrn = NCCC[C@@H](N)C(=O)O; Octanoyl = CCCCCCCC(=O)*; Orn = NCCC[C@H](N)C(=O)O; Dap = NC[C@H](N)C(=O)O; Alloc = C=CCOC(=O)*
The reply must contain the numeric value and, after it, the unit.

compound	E. coli MIC
CCCCCCCC(=O)N[C@H](CC(N)=O)C(=O)N[C@H](Cc1ccc(O)cc1)C(=O)N[C@H](Cc1c[nH]c2ccccc12)C(=O)N[C@H](CCCN)C(=O)N[C@@H](CCCN)C(=O)NCC(=O)N[C@H](CCCN)C(=O)N[C@@H](Cc1c[nH]c2ccccc12)C(=O)N[C@@H](C)C(=O)N[C@H](C(=O)NCC(=O)O)[C@@H](C)CC [Oct- Ala OH] (Octanoyl-[dN][dY][dW][dOrn][Orn]G[dOrn]WAIG-OH)	25 µg/mL
CCC(C)CCC(=O)N[C@H](CC(N)=O)C(=O)N[C@H](Cc1ccc(O)cc1)C(=O)N[C@H](Cc1c[nH]c2ccccc12)C(=O)N[C@H](CCCN)C(=O)N[C@@H](CCCN)C(=O)NCC(=O)N[C@H](CCCN)C(=O)N[C@@H](Cc1c[nH]c2ccccc12)C(=O)N[C@@H](CO)C(=O)N[C@H](C(=O)NCC(N)=O)[C@@H](C)CC (stereo partly drawn) [Und(9-Ser)-NH2] ({Hexanoyl(4ξ-Me)}-[dN][dY][dW][dOrn][Orn]G[dOrn]WSIG-NH2)	0.78 µg/mL

What value of measured E. coli MIC is listed for C=CCOC(=O)NC[C@H](NC(=O)[C@H](Cc1c[nH]c2ccccc12)NC(=O)[C@@H](CCCN)NC(=O)CNC(=O)[C@H](CCCN)NC(=O)[C@@H](CCCN)NC(=O)[C@@H](Cc1c[nH]c2ccccc12)NC(=O)[C@@H](Cc1ccc(O)cc1)NC(=O)[C@@H](CC(N)=O)NC(=O)CCCCCCC)C(=O)N[C@H](C(=O)NCC(=O)O)[C@@H](C)CC [Oct- Dap(Alloc) OH] (Octanoyl-[dN][dY][dW][dOrn][Orn]G[dOrn]W[Dap](Alloc)IG-OH) ?
12.5 µg/mL
